B1: HESX1 (parent)
chain: SKYENYFSASERLSLKRELSWYRG

Variants of: B1
Assay: protein stability index of a GFP-peptide fusion (GPS, HEK-293T) (PSI 1-6); higher = more stable;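 further: lentivirally expressed fusions sorted by FACS into six bins by GFP to DsRed ratio, PSI derived from sequencing read proportions per bin multiplied by bin number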
Details: c terminus: a fixed tail appended
Below is a list of entries, each paired with its recorded protein stability index value.
QUANTITY: protein stability index

| CHANGES | RESULT |
| --- | --- |
| R23K | 2.14 |
| E4R | 2.54 |
| Y6H | 2.25 |
| E18S | 1.38 |
| Y6A | 2.85 |
| S10H | 2.38 |
| L15F | 1.61 |
| G24Y | 1.45 |
| S8Q | 2.26 |
| R17M | 2.72 |
| R17A | 2.04 |
| K2S | 1.82 |
| L19A | 2.62 |
| Y6S | 2.16 |
| F7H | 2.72 |
| K16I | 1.8 |
